# Test details: Pharmacokinetics in rats after single iv, po or sc dose (plasma and brain)
# Assay type: in vivo, Sprague-Dawley rats
# Test context: male, Sprague-Dawley, brain/plasma; rat, SC 1.0 mg eq./kg; read-out: Ratio of Brain-to-Plasma AUC(0-∞)
Recorded endpoint: Kp
Output spec: single numeric token, no unit.

Exercise: Return the recorded Kp value; entry: CC12CC3CC(C)(C1)CC(N)(C3)C2 [memantine]
Solution: 31.4

* * *

# Test details: in vivo
# Test context: male, C57Bl/6, mouse, iv, 1 mg/kg
Recorded endpoint: clearance (mL/min/kg)
# output: bare number, implied unit mL/min/kg

Exercise: For the molecule CC12CC3CC(C)(C1)CC(N)(C3)C2 [memantine] , give its measured clearance value.
Solution: 63.5
